// reported IFN-γ production, lymphocyte activation assay (donor Y), antibody 1 µg/ml, N = 1 per item
Biological target: T1, human TIM-3 protein on human PBMC (human, UniProt Q8TDQ0 22-301)
T1 sequence: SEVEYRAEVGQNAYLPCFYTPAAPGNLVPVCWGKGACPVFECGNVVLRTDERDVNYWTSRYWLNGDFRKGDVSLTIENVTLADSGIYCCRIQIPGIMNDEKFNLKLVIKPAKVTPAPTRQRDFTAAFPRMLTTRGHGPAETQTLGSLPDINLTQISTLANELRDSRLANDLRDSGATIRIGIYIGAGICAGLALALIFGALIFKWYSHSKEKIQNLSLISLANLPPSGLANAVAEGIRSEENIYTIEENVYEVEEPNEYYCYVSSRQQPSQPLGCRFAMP
Experiment: cell-based or functional assay
Form entry: value (pg/mL) — number only.

Known IFN-γ production, lymphocyte activation assay (donor Y), antibody 1 µg/ml, N = 1 results, listed for orientation:
INSERT INTO measurements (binder, value_units, numeric_result) VALUES
  ('fully human TIM-3 antibody 39E5H1 (antibody, human IgG4, V domains shown, also called antibody number 6) VH: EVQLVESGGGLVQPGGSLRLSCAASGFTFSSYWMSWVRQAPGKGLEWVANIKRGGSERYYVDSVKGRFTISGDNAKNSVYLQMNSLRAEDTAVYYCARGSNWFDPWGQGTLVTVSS VL: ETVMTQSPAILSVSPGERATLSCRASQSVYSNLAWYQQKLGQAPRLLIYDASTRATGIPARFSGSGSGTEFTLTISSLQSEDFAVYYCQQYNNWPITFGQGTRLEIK', 'pg/mL', 3400),
  ('fully human TIM-3 antibody 134H3G6 (antibody, human IgG4, V domains shown, also called antibody number 3) VH: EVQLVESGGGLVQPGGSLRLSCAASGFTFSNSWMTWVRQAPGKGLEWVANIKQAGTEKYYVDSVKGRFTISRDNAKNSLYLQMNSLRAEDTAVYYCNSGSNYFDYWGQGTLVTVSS VL: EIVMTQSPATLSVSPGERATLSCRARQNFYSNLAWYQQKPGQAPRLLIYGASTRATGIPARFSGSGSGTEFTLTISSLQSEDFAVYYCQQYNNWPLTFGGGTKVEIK', 'pg/mL', 3200),
  ('fully human TIM-3 antibody 18D2H2 (antibody, human IgG4, V domains shown, also called antibody number 2) VH: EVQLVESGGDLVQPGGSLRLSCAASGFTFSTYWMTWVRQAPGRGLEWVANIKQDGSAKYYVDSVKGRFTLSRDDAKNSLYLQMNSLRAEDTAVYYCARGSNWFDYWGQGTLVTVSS VL: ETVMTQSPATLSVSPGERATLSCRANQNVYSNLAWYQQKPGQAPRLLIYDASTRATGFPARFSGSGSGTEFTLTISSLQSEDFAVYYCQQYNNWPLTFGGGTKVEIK', 'pg/mL', 3110),
  ('fully human TIM-3 antibody 34B6D8 (antibody, human IgG4, V domains shown, also called antibody number 5) VH: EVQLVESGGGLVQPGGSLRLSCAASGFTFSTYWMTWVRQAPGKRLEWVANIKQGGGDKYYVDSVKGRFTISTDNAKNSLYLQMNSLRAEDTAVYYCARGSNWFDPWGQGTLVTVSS VL: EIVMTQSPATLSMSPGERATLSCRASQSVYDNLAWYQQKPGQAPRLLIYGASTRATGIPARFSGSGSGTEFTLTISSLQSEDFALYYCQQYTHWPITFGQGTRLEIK', 'pg/mL', 3050),
  ('fully human TIM-3 antibody 7A4F10 (antibody, human IgG4, V domains shown, also called antibody number 1) VH: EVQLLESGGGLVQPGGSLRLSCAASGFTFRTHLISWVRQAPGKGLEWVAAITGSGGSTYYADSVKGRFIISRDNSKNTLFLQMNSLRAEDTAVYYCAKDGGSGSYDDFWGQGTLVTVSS VL: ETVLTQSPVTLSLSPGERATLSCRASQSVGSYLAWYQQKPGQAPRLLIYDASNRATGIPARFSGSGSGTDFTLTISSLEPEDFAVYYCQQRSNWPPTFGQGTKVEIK', 'pg/mL', 3330);

Now consider a different binder.
*Q* # query: IFN-γ production, lymphocyte activation assay (donor Y), antibody 1 µg/ml, N = 1 of entry fully human TIM-3 antibody 57F4E5 (antibody, human IgG4, V domains shown, also called antibody number 7) VH: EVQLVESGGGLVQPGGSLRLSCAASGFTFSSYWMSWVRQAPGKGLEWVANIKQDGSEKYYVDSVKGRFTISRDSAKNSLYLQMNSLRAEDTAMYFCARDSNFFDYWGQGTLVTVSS VL: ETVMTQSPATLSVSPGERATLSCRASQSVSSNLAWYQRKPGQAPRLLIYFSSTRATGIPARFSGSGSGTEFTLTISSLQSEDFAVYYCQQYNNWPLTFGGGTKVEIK
*A* 3550
